Values were extracted from ChEMBL document CHEMBL5046240.

Experiment: Metabolic stability in human liver microsomes assessed as half life by LC-MS/MS analysis
Format: ADME
readoutType: half-life (min)

Cc1ncc(-c2ccc3nc(NC(=O)C4CC4)sc3c2)cc1NC(=O)OC1CC(C)OC(C)C1 (stereo not drawn) : 12

1: Cc1ncc(-c2ccc3nc(NC(=O)C4CC4)sc3c2)cc1NC(=O)OC1CCC(F)(F)CC1
2: Cc1ncc(-c2ccc3nc(NC(=O)C4CC4)sc3c2)cc1NC(=O)OC1CCOCC1
// pick larger half-life from pair: 1 vs 2 Returns: label corresponding to the selected item.
2
